I'd appreciate it if you could supply fold induction at 1 µM values for the items below.
Test system: KLF15 promoter (pEZX-FR03hKLF15p human podocytes)
Test: KLF15 reporter high-throughput screening assay in human podocytes (firefly/renilla luciferase)
Assay type: cell-based
Conditions: Homo sapiens; NCI library hits, 1 μM, 24 hours; read-out: Fold Change (KLF15 reporter activity)
I only need the number, thanks.

(Q) Quick one: fold induction at 1 µM for Cc1nc(-n2nc(-c3ccccc3)cc2-c2ccccc2)sc1C(=O)C=Cc1ccc(Cl)c(Cl)c1 ?
(A) 2.89

(Q) Quick one: fold induction at 1 µM for O=C1C=C/C(=C2/Nc3ccccc3S2)C(O)=C1 ?
(A) 2.75

(Q) Quick one: fold induction at 1 µM for Cc1ccc(N/N=C2\C(=N)N(c3ccccc3)N=C2N)cc1 ?
(A) 3.03

(Q) Quick one: fold induction at 1 µM for O=C(Nc1ccc(Nc2ccccc2)cc1)Nc1ccccc1Cl ?
(A) 3.03

(Q) Quick one: fold induction at 1 µM for CN(C)c1ccc(N=Nc2cccc3ccoc23)cc1 ?
(A) 2.87

(Q) Quick one: fold induction at 1 µM for Cc1cc(N(C)C)ccc1/N=N/c1ccc2ncccc2c1 ?
(A) 3.02

(Q) Quick one: fold induction at 1 µM for O=C(Nc1ccc2ccccc2c1)c1ccc(Cl)cc1Cl ?
(A) 2.97

(Q) Quick one: fold induction at 1 µM for c1ccc(-c2nnc(-c3ccccn3)s2)nc1 ?
(A) 2.86

(Q) Quick one: fold induction at 1 µM for Nc1ccc2c(c1)CN1C(=O)c3ccccc3C1=N2 ?
(A) 3.07

(Q) Quick one: fold induction at 1 µM for O=C(Nc1ccc(Cl)c(Cl)c1)Nc1ccccc1O ?
(A) 2.64

(Q) Quick one: fold induction at 1 µM for O=C(Nc1ccc2ccccc2c1)c1cccc(F)c1 [C-8, 3-fluoro-N-(2-naphthyl)benzamide] ?
(A) 2.79

(Q) Quick one: fold induction at 1 µM for Cc1cccnc1NC(=S)Nc1ncccc1C ?
(A) 2.71

(Q) Quick one: fold induction at 1 µM for Cc1csc(N=Nc2ccc(N(C)C)cc2)[n+]1[O-] ?
(A) 2.6

(Q) Quick one: fold induction at 1 µM for O=C1Nc2ccccc2C1=NNC(=O)c1ccccc1O ?
(A) 2.69

(Q) Quick one: fold induction at 1 µM for CN(C)c1cccc(C=C(C#N)c2ccccc2)c1 ?
(A) 2.57

(Q) Quick one: fold induction at 1 µM for COc1ccc2[nH]c(-c3ccccc3)cc2c1 ?
(A) 3.14

(Q) Quick one: fold induction at 1 µM for COc1ccc(N=Nc2ccc(N)nc2N)cc1 ?
(A) 3.14

(Q) Quick one: fold induction at 1 µM for Nc1ccccc1-n1nc2ccc3ccccc3c2n1 [C-9, 2-benzo[e]benzotriazol-2-ylaniline] ?
(A) 2.72

(Q) Quick one: fold induction at 1 µM for O=C1C(c2cnc3ccccc3n2)=C(O)c2ccccc21 ?
(A) 2.85

###

Tested on: KLF15 promoter (pEZX-FR03hKLF15p human podocytes)
Test: KLF15 reporter high-throughput screening assay in human podocytes (firefly/renilla luciferase)
Assay type: cell-based
Settings: NCI library hits, 1 μM, 24 hours
I'd appreciate it if you could supply Fold Change (KLF15 reporter activity) values for the items below.
Expressed in fold, but write only the number.

(Q) Quick one: Fold Change (KLF15 reporter activity) for Oc1ccc(-c2nc3ccccc3s2)cc1 ?
(A) 3.0083

(Q) Quick one: Fold Change (KLF15 reporter activity) for O=C(Nc1cccc([N+](=O)[O-])c1)c1ccc2ccccc2c1O ?
(A) 2.6069

(Q) Quick one: Fold Change (KLF15 reporter activity) for CN(C)c1ccc(N=Nc2ccccn2)cc1 ?
(A) 2.6148

(Q) Quick one: Fold Change (KLF15 reporter activity) for COc1cccc(C=Cc2nccc3ccccc23)c1OC ?
(A) 2.5631

(Q) Quick one: Fold Change (KLF15 reporter activity) for COc1ccc2c(n1)Sc1nc3ccccc3nc1N2 ?
(A) 2.6597

(Q) Quick one: Fold Change (KLF15 reporter activity) for CN(C)c1ccc(/C=C2\C=Cc3ccccc32)cc1 [C-3, [(4-Dimethylamino)benzylidene]indene] ?
(A) 2.6455

(Q) Quick one: Fold Change (KLF15 reporter activity) for Cc1cccn2c(=O)[nH]nc12 ?
(A) 2.8700

(Q) Quick one: Fold Change (KLF15 reporter activity) for CCOC(=O)c1sc2[n+](c1C)C(=O)/C(=C/c1ccc([N+](=O)[O-])cc1)S2.[Cl-] ?
(A) 2.8360

###

System: KLF15 promoter (pEZX-FR03hKLF15p human podocytes)
Experiment: KLF15 reporter high-throughput screening assay in human podocytes (firefly/renilla luciferase)
Type: cell-based
Conditions: Homo sapiens; NCI library hits, 1 μM, 24 hours; read-out: Fold Change (KLF15 reporter activity)
ASSAY_METRIC: fold induction at 1 µM
I only need the number, thanks.

(Q) Query fold induction at 1 µM on KLF15 promoter (pEZX-FR03hKLF15p human podocytes) for FC(F)(F)c1cccc(-c2nc3nc(Cl)c(Cl)nc3[nH]2)c1
(A) 2.82

(Q) Query fold induction at 1 µM on KLF15 promoter (pEZX-FR03hKLF15p human podocytes) for Cc1ccc(NNC2=C3N=NN=C3C=CC2=O)cc1
(A) 2.57

(Q) Query fold induction at 1 µM on KLF15 promoter (pEZX-FR03hKLF15p human podocytes) for COc1cccc2nc3cc(C)c(C)cc3nc12
(A) 2.59

(Q) Query fold induction at 1 µM on KLF15 promoter (pEZX-FR03hKLF15p human podocytes) for O=C(NC(=S)Nc1ccccn1)c1ccccc1 [C-36, N-(pyridin-2-ylcarbamothioyl)benzamide]
(A) 2.64

(Q) Query fold induction at 1 µM on KLF15 promoter (pEZX-FR03hKLF15p human podocytes) for Clc1ccccc1-c1nc(-c2ccncc2)no1 [C-10, Pifexole]
(A) 2.72

(Q) Query fold induction at 1 µM on KLF15 promoter (pEZX-FR03hKLF15p human podocytes) for COc1ccc(C(C#N)=Cc2ccccn2)cc1
(A) 2.6

(Q) Query fold induction at 1 µM on KLF15 promoter (pEZX-FR03hKLF15p human podocytes) for CC(=NNc1nc2ccccc2s1)c1ccncn1
(A) 3.29

(Q) Query fold induction at 1 µM on KLF15 promoter (pEZX-FR03hKLF15p human podocytes) for CSc1ccc(NC(=O)Nc2cc(C)ccn2)cc1
(A) 3.17

(Q) Query fold induction at 1 µM on KLF15 promoter (pEZX-FR03hKLF15p human podocytes) for Nc1ccccc1C(=O)Nc1ccc(Cl)cc1Cl [C-11, 2-amino-N-(2,4-dichlorophenyl)benzamide]
(A) 2.64

(Q) Query fold induction at 1 µM on KLF15 promoter (pEZX-FR03hKLF15p human podocytes) for NC(=O)c1ccccc1OCC(=O)Nc1ccc(Cl)c(Cl)c1
(A) 3.13
